The following compounds are shown together with reported pIC50 values.
# Experimental Target: 72 kDa type IV collagenase (Homo sapiens, UniProt P08253)
# Sequence (P08253 whole entry): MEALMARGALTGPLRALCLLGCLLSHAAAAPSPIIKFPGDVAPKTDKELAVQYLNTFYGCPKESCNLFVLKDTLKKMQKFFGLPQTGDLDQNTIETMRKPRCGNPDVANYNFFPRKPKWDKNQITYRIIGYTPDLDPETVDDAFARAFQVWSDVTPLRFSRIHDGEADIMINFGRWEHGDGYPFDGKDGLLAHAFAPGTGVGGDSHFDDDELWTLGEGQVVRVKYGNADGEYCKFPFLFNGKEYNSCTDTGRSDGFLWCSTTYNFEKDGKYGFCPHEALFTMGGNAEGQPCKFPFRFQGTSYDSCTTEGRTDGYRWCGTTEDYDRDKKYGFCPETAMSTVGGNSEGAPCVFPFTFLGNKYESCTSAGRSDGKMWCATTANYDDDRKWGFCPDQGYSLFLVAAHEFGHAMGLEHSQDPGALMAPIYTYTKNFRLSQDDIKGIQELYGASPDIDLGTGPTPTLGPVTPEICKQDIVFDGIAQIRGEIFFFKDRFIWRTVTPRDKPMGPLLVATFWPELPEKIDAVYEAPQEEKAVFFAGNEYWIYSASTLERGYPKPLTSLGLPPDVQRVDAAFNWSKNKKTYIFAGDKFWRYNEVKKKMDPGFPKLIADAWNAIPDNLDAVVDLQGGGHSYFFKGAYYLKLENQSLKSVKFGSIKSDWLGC
# Procedure Text: Inhibitory activity against human gelatinase A (matrix metalloprotease-2 MMP2)
pIC50: −log10 of the molar value.
Endpoint Name: pIC50

[[record]]
smiles_record = "O=C(O)[C@@H](Cc1ccccc1)NS(=O)(=O)c1ccc(-c2ccccc2)cc1"
endpoint_name = "pIC50"
limit_qualifier = "="
measured_value = 6.51

[[record]]
smiles_record = "Cc1ccc(-c2ccc(S(=O)(=O)N[C@H](Cc3c[nH]c4ccccc34)C(=O)O)s2)cc1"
endpoint_name = "pIC50"
limit_qualifier = "="
measured_value = 8.00

[[record]]
smiles_record = "Cc1ccc(C#Cc2ccc(S(=O)(=O)N[C@@H](C(=O)O)C(C)C)s2)cc1"
endpoint_name = "pIC50"
limit_qualifier = "="
measured_value = 7.28

[[record]]
smiles_record = "O=C(Nc1ccccc1)c1ccc(S(=O)(=O)N[C@H](Cc2c[nH]c3ccccc23)C(=O)O)cc1"
endpoint_name = "pIC50"
limit_qualifier = "<"
measured_value = 6.00

[[record]]
smiles_record = "Cc1ccc(C#Cc2ccc(S(=O)(=O)N[C@H](Cc3c[nH]c4ccccc34)C(=O)O)cc2)cc1"
endpoint_name = "pIC50"
limit_qualifier = "="
measured_value = 7.47


====

The following compounds are shown together with reported pIC50 values.
# Experimental Target: 72 kDa type IV collagenase (Homo sapiens)
pIC50: −log10 of the molar value.
Endpoint Name: pIC50

[[record]]
smiles_record = "O=C(Nc1ccc(S(=O)(=O)N[C@H](Cc2c[nH]c3ccccc23)C(=O)O)cc1)c1ccc(Br)cc1"
limit_qualifier = "="
measured_value = 8.59

[[record]]
smiles_record = "O=C(O)[C@@H](Cc1ccccc1)NS(=O)(=O)c1ccc(-c2nnn(-c3ccccc3)n2)cc1"
limit_qualifier = "="
measured_value = 6.96

[[record]]
smiles_record = "O=C(O)[C@@H](Cc1c[nH]c2ccccc12)NS(=O)(=O)c1ccc(-c2ccccc2)cc1"
limit_qualifier = "="
measured_value = 7.28

[[record]]
smiles_record = "Cc1ccc(-n2nnc(-c3ccc(S(=O)(=O)N[C@H](Cc4ccccc4)C(=O)O)cc3)n2)cc1"
limit_qualifier = ">"
measured_value = 6.70


====

# Experimental Target: Neprilysin (Rattus norvegicus, UniProt P07861)
# Sequence (P07861 whole entry): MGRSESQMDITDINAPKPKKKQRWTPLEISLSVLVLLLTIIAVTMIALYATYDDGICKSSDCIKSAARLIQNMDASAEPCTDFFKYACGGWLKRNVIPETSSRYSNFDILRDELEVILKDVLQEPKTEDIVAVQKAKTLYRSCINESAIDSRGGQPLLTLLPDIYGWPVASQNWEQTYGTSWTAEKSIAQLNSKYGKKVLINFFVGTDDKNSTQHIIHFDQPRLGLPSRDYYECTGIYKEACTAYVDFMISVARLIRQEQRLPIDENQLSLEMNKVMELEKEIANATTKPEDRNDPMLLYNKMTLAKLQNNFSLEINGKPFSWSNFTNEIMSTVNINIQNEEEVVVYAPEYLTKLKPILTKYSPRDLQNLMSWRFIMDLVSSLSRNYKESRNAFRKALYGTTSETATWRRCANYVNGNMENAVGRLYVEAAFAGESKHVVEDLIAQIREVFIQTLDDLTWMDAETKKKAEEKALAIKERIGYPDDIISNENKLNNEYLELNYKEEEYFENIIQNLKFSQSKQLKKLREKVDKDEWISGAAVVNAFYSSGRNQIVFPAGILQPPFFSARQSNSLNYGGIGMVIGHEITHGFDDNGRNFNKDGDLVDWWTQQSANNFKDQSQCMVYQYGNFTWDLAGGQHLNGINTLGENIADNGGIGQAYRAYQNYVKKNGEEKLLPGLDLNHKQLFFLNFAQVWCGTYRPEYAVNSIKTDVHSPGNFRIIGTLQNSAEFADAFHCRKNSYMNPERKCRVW
Endpoint Name: IC50

[[record]]
smiles_record = "O=C(O)[C@@H](Cc1c[nH]c2ccccc12)NS(=O)(=O)c1ccc(-c2nnn(-c3ccccc3)n2)cc1"
endpoint_name = "IC50"
measured_value = "> 1000 nM"


====

# Experimental Target: Stromelysin-1 (Homo sapiens, UniProt P08254)
# Sequence (P08254 whole entry): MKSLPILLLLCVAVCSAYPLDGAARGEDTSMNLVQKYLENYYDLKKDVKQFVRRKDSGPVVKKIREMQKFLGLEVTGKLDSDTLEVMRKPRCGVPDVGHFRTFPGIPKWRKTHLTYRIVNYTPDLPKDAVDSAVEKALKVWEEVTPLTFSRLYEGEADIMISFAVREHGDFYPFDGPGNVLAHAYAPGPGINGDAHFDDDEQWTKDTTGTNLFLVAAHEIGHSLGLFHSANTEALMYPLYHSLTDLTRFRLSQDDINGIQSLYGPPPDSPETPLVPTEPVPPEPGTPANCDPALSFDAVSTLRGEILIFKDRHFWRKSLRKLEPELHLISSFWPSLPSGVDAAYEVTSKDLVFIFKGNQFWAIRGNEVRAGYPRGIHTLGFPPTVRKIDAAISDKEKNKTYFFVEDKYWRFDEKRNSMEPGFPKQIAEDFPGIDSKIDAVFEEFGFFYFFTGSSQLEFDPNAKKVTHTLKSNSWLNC
# Procedure Text: Inhibitory activity against Matrix metalloprotease-3
Endpoint Name: IC50

[[record]]
smiles_record = "O=C(Nc1ccc(S(=O)(=O)N[C@H](Cc2c[nH]c3ccccc23)C(=O)O)cc1)c1ccc(Br)cc1"
measured_value = "> 1000 nM"

[[record]]
smiles_record = "O=C(O)[C@@H](Cc1c[nH]c2ccccc12)NS(=O)(=O)c1ccc(-c2nnn(-c3ccccc3)n2)cc1"
measured_value = "> 1000 nM"

[[record]]
smiles_record = "CSc1ccc(-n2nnc(-c3ccc(S(=O)(=O)N[C@@H](C(=O)O)C(C)C)cc3)n2)cc1"
measured_value = "> 1000 nM"

[[record]]
smiles_record = "CSc1ccc(-c2ccc(S(=O)(=O)N[C@@H](C(=O)O)C(C)C)cc2)cc1"
measured_value = "> 1000 nM"


====

# Procedure Text: Maximum plasma concentration (Cmax) after p.o. administration of 200 mg/kg in mice
# Assay type: ADME, organism-based
# Design: dose 200 mg/kg, route oral
# Experimental Setup: mouse, po
Decide by Cmax: equal to or exceeding 6 µM means satisfied, less means not satisfied.

[[record]]
smiles_record = "Cc1ccc(-c2ccc(S(=O)(=O)N[C@H](Cc3c[nH]c4ccccc34)C(=O)O)s2)cc1"
assigned_class = "satisfied"

[[record]]
smiles_record = "CSc1ccc(-c2ccc(S(=O)(=O)N[C@@H](C(=O)O)C(C)C)cc2)cc1"
assigned_class = "satisfied"

[[record]]
smiles_record = "O=C(NO)[C@@H](Cc1ccccc1)NS(=O)(=O)c1ccc(-c2ccccc2)cc1"
assigned_class = "not satisfied"

[[record]]
smiles_record = "Cc1ccc(-n2nnc(-c3ccc(S(=O)(=O)N[C@H](Cc4ccccc4)C(=O)O)cc3)n2)cc1"
assigned_class = "not satisfied"

[[record]]
smiles_record = "COc1ccc(-c2ccc(S(=O)(=O)N[C@@H](C(=O)O)C(C)C)cc2)cc1"
assigned_class = "satisfied"

[[record]]
smiles_record = "CC(C)[C@@H](NS(=O)(=O)c1ccc(Oc2ccccc2)cc1)C(=O)NO"
assigned_class = "not satisfied"

[[record]]
smiles_record = "CSc1ccc(-n2nnc(-c3ccc(S(=O)(=O)N[C@@H](C(=O)O)C(C)C)cc3)n2)cc1"
assigned_class = "satisfied"

[[record]]
smiles_record = "CC(C)[C@@H](NS(=O)(=O)c1ccc(Oc2ccccc2)cc1)C(=O)O"
assigned_class = "satisfied"

[[record]]
smiles_record = "O=C(O)[C@@H](Cc1c[nH]c2ccccc12)NS(=O)(=O)c1ccc(-c2nnn(-c3ccc(Br)cc3)n2)cc1"
assigned_class = "not satisfied"

[[record]]
smiles_record = "COc1ccc(-n2nnc(-c3ccc(S(=O)(=O)N[C@H](Cc4c[nH]c5ccccc45)C(=O)O)cc3)n2)cc1"
assigned_class = "not satisfied"

[[record]]
smiles_record = "O=C(O)[C@@H](Cc1c[nH]c2ccccc12)NS(=O)(=O)c1ccc(-c2ccccc2)cc1"
assigned_class = "satisfied"

[[record]]
smiles_record = "COc1ccc(C#Cc2ccc(S(=O)(=O)N[C@H](Cc3ccccc3)C(=O)O)s2)cc1"
assigned_class = "satisfied"

[[record]]
smiles_record = "COc1ccc(-c2ccc(S(=O)(=O)N[C@@H](C(=O)O)C(C)C)s2)cc1"
assigned_class = "satisfied"

[[record]]
smiles_record = "CSc1ccc(C(=O)Nc2ccc(S(=O)(=O)N[C@@H](C(=O)O)C(C)C)cc2)cc1"
assigned_class = "satisfied"

[[record]]
smiles_record = "COc1ccc(-c2ccc(S(=O)(=O)N[C@H](Cc3c[nH]c4ccccc34)C(=O)O)cc2)cc1"
assigned_class = "not satisfied"

[[record]]
smiles_record = "Cc1ccc(C#Cc2ccc(S(=O)(=O)N[C@@H](C(=O)O)C(C)C)s2)cc1"
assigned_class = "satisfied"

[[record]]
smiles_record = "O=C(Nc1ccc(S(=O)(=O)N[C@H](Cc2c[nH]c3ccccc23)C(=O)O)cc1)c1ccc(Br)cc1"
assigned_class = "not satisfied"

[[record]]
smiles_record = "Cc1ccc(C#Cc2ccc(S(=O)(=O)N[C@H](Cc3c[nH]c4ccccc34)C(=O)O)cc2)cc1"
assigned_class = "satisfied"

[[record]]
smiles_record = "O=C(O)[C@@H](Cc1ccccc1)NS(=O)(=O)c1ccc(-c2ccccc2)cc1"
assigned_class = "satisfied"

[[record]]
smiles_record = "Cc1ccc(C#Cc2ccc(S(=O)(=O)N[C@H](Cc3c[nH]c4ccccc34)C(=O)O)s2)cc1"
assigned_class = "satisfied"

[[record]]
smiles_record = "O=C(O)[C@@H](Cc1ccccc1)NS(=O)(=O)c1ccc(-c2nnn(-c3ccccc3)n2)cc1"
assigned_class = "satisfied"


====

The following compounds are shown together with reported pIC50 values.
# Experimental Target: Matrilysin (Homo sapiens, UniProt P09237)
# Sequence (P09237 whole entry): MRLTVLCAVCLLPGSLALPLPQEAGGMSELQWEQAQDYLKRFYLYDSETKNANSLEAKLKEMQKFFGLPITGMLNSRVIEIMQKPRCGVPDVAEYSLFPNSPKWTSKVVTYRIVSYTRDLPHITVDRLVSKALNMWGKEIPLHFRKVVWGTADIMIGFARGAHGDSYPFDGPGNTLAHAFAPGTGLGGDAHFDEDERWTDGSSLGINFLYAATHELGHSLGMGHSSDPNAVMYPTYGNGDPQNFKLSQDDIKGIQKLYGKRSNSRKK
pIC50: −log10 of the molar value.
Endpoint Name: pIC50

[[record]]
smiles_record = "Cc1ccc(-c2ccc(S(=O)(=O)N[C@H](Cc3c[nH]c4ccccc34)C(=O)O)s2)cc1"
experimental_target = "Matrilysin (Homo sapiens, UniProt P09237)"
measured_value = "< 6.00"

[[record]]
smiles_record = "CSc1ccc(-c2ccc(S(=O)(=O)N[C@@H](C(=O)O)C(C)C)cc2)cc1"
experimental_target = "Matrilysin (Homo sapiens, UniProt P09237)"
measured_value = "< 6.00"

